Every entry's value here was drawn from the supplement of paper PMC6555819.

Test system: PPARg:RXRa 90nM:30nM, anti-RXR (NR concentration 90 nM, RXRa partner concentration 30 nM)
Assay: PBM binding z-score (relative to random genomic background probes); higher = stronger binding; sequences stand for … in GC…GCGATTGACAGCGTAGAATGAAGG
Kindly supply the reported PBM binding z-score values for the records listed here.

{"columns": ["residue string", "PBM binding z-score"],
 "data": [
  ["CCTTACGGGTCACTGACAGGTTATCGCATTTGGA", 2.96],
  ["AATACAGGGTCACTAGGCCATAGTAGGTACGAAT", 5.88]
]}

Would you mind listing PBM binding z-score for each of the following sequences?
1. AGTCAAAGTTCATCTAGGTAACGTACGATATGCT
2. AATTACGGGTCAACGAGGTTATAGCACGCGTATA
3. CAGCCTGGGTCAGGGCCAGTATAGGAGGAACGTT
4. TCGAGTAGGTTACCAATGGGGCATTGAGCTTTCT
5. GGAACGAGGGCATTCGAGTTGAAAGCATGGCGAT
6. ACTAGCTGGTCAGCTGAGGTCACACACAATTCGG

1. 5.86
2. 5.1
3. 0.0759
4. 1.16
5. 0.259
6. 0.958

Would you mind listing PBM binding z-score for each of the following sequences?
1. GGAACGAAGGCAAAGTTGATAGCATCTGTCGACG
2. TCTTGTAGATCAAGCAGGTTAACAAAGCCTGAGT
3. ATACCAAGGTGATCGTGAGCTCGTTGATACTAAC
4. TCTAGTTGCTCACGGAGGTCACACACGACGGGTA

[4.01, 2.04, -0.0822, 2.76]

Would you mind listing PBM binding z-score for each of the following sequences?
1. TCATATAGGTAAGCAGGTGAAAGTCCGTAAGTTA
2. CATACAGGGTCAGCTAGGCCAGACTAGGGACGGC
3. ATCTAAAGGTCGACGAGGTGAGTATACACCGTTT
4. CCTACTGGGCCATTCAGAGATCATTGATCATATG
5. GCGACTGGGGCATCAGCAGGTGACCATAACTTAA
6. AATACAGGGTCATCGTTGGCCAGAGTACGCACAG

3.36
1.8
2.67
-0.372
-0.0151
4.75

Would you mind listing PBM binding z-score for each of the following sequences?
1. GCATATAGGTAATACAAGGTGAAAGTGCGATTGT
2. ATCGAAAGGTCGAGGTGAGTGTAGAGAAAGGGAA
3. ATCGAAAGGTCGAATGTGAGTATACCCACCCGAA
4. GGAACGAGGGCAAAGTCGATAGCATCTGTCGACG
5. TGTCAAAGTTCAAAGGTAACGTAGGTATCCACAC
6. GATACCGGGTCAGCTAGAGGCCAGAGTATGGAAA
7. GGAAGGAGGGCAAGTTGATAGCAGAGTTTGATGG

2
2.6
1.97
2.36
7.25
1.18
0.957

Would you mind listing PBM binding z-score for each of the following sequences?
1. ACAATGAGGTTATTAAGATCAGGGAATTGCGGTC
2. CCTAGCAGGCCCATCTGGGTCACTCAAGGCTTGA
3. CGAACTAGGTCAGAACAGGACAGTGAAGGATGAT
4. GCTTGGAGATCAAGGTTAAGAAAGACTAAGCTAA
5. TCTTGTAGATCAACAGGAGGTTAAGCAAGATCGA
6. ACTCGGAGGACAAAGGTCAGACCTACGCCAGTGA
7. TCTAATAGTTGAAGGGCAACCGACGAGTCCGTTT

1.3
-0.217
3.44
0.671
1.74
6.85
2.9

Would you mind listing PBM binding z-score for each of the following sequences?
1. TCAGACAGGTGAAGGTAACTAAGGTACGCAGTCG
2. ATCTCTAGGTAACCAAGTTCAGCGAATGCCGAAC

3.21
0.524
